src = patent US8329726B2

target-desc: recombinant human c-Met/HGF receptor (Homo sapiens)
Construct: His tag (pBlueBacHis2A vector); made in house; host or cells: Hi-5 cells (Trichoplusia ni), baculovirus
Sequence (P08581 1078-1337): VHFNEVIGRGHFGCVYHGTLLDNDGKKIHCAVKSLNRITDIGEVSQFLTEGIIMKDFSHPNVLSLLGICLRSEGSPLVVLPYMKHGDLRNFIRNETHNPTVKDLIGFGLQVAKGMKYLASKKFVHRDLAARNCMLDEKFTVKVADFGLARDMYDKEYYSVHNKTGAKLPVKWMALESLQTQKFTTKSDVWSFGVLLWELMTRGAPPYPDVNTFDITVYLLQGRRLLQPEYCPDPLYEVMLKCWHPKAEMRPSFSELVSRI
protocol-notes: In vitro receptor tyrosine kinase assay (DELFIA), c-Met/HGF receptor
Format: biochemical
test-conditions: read-out: CMET IC50
Listing: IC50 of selected compounds

>>> df
                                   compound                               target_desc        result
0  COCCNCc1ccc(-c2cc3nccc(Oc4ccc(NC(=O)N5CCN(c6ccc(F)cc6)C5=O)cc4F)c3s2)cc1  recombinant human c-Met/HGF receptor (Homo sapiens)       < 50 nM
1  COCCn1cnc(-c2cc3nccc(Oc4ccc(NC(=O)CC(=O)Nc5ccccc5)cc4F)c3s2)c1  recombinant human c-Met/HGF receptor (Homo sapiens)       < 50 nM
2  CN1CCN(Cc2ccc(-c3cc4nccc(Oc5ccc(NC(=O)CC(=O)Nc6ccccc6)cc5F)c4s3)cc2)CC1  recombinant human c-Met/HGF receptor (Homo sapiens)       < 50 nM
3  O=C(Cn1cnc(-c2cc3nccc(Oc4ccc(NC(=O)CC(=O)Nc5ccccc5)cc4F)c3s2)c1)NCCCN1CCCC1  recombinant human c-Met/HGF receptor (Homo sapiens)       < 50 nM
4  CCn1cnc(-c2cc3nccc(Oc4ccc(NC(=O)CC(=O)Nc5ccccc5F)cc4F)c3s2)c1 [drawing 293]  recombinant human c-Met/HGF receptor (Homo sapiens)       < 50 nM
5  CCn1cnc(-c2cc3nccc(Oc4ccc(NC(=O)CC(=O)Nc5cccc(F)c5)cc4F)c3s2)c1  recombinant human c-Met/HGF receptor (Homo sapiens)  50 to 250 nM
6  COc1ccccc1NC(=O)CC(=O)Nc1ccc(Oc2ccnc3cc(C(=O)N4CC(O)C4)sc23)c(F)c1  recombinant human c-Met/HGF receptor (Homo sapiens)  50 to 250 nM
7  CCn1cnc(-c2cc3nccc(Oc4ccc(NC(=O)CC(=O)NC5CCCCC5)cc4F)c3s2)c1  recombinant human c-Met/HGF receptor (Homo sapiens)  50 to 250 nM

For the next question, use this compound.
Problem: Requested field: IC50. Item: "CN(C)CCn1cnc(-c2cc3nccc(Oc4ccc(NC(=O)N5CCN(c6ccccc6)C5=O)cc4F)c3s2)c1"
Result: < 50 nM
